- method: small-molecule binders of probe aLefty1, primary screen, biochemical, small-molecule microarray, 635/667 nm fluorescence (AID 1153);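 also: score merges spot fluorescence with signal-to-noise ratio from the scanned slide images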
- test_settings: higher = more signal
property_measured: composite z-score

[
  {
    "molecule": "COC(=O)CC=C[C@@H](C)[C@@H](C=NOC(C)CN1CCCc2nc(C)c(C)cc21)OC (some centres undefined)",
    "endpoint_result": -0.202
  },
  {
    "molecule": "CCN1C(=O)[C@@H]2[C@H]3C(=CC[C@@H]2C1=O)C1(OCCCO1)[C@H]1O[C@H]1[C@H]3O",
    "endpoint_result": 0.167
  },
  {
    "molecule": "O=C1[C@H]2[C@H]3[C@H](O)[C@H](O)CC(=NOCc4ccccc4)[C@H]3CC[C@H]2C(=O)N1Cc1ccc2c(c1)OCO2",
    "endpoint_result": -0.147
  }
]

Query (molecule): CCOC(=O)[C@H](Cc1ccccc1)NC(=O)CCC1CC(OC(=O)NCc2ccc3c(c2)OCO3)CC2(CCCC(COC(=O)NCCC(C)C)O2)O1 (some centres undefined) ; field requested: composite z-score
-0.0162

Where do these numbers come from? They come from PubChem BioAssay.
